System: S2 (S. aureus 2, MRSA in vivo)
experiment: MIC determination (bacteria), strain S2
Type: cell-based
assayContext: Table 1; 2-fold broth dilution
Measured MIC S2, listed per entry.
measurementName: MIC S2 (µg/mL)

compound	measurementName	unitOfMeasurement	readoutNumber
CCCCCCCCCC(O)=C1C(=O)C(CCSC)N(C(=O)Cc2cccs2)C1=O (stereo not drawn) [24m]	MIC S2	µg/mL	2
CCCCCCCC=CC(=O)N1C(=O)C(=C(O)CCC)C(=O)C1CC(C)C (stereo not drawn) [23b]	MIC S2	µg/mL	0.25
CCCCCCCC(O)=C1C(=O)C(CCSC)N(C(=O)CC(C)CC(C)(C)C)C1=O (stereo not drawn) [24j]	MIC S2	µg/mL	0.5
CCCCCC(O)=C1C(=O)C(CCSC)N(C(=O)C2CCCCC2)C1=O (stereo not drawn) [24d]	MIC S2	µg/mL	4
CCCCCCCCCCCC(O)=C1C(=O)C(CCSC)N(C(C)=O)C1=O (stereo not drawn) [24b]	MIC S2	µg/mL	1
CCCCCCCC(O)=C1C(=O)C(CCSC)N(C(=O)C2CCCCC2)C1=O (stereo not drawn) [24e]	MIC S2	µg/mL	0.5
CCCCCCCC=CC(=O)N1C(=O)C(=C(O)CCCCC)C(=O)C1CC(C)C (stereo not drawn) [23c]	MIC S2	µg/mL	0.5
CCCCCCCCCC(O)=C1C(=O)C(CCSC)N(C(=O)CC(C)CC(C)(C)C)C1=O (stereo not drawn) [24k]	MIC S2	µg/mL	0.5
CCCCCCCCCCC(O)=C1C(=O)C(CCSC)N(C(C)=O)C1=O (stereo not drawn) [24a]	MIC S2	µg/mL	2
CCCCCCCCCC(O)=C1C(=O)CCN(C(=O)c2ccc(OC)cc2)C1=O [25d]	MIC S2	µg/mL	4
CCCCCC(O)=C1C(=O)C(CCSC)N(C(=O)CC(C)CC(C)(C)C)C1=O (stereo not drawn) [24i]	MIC S2	µg/mL	0.5
CCCCCCCCCCCC(O)=C1C(=O)CCN(C(=O)c2ccccc2)C1=O [25b]	MIC S2	µg/mL	0.5
CCCCCCCCCC(O)=C1C(=O)CCN(C(=O)c2ccccc2)C1=O [25a]	MIC S2	µg/mL	4
CCCCCCCCCCCCCC(O)=C1C(=O)CCN(C(=O)c2ccccc2)C1=O [25c]	MIC S2	µg/mL	2
CCCCCCCC=CC(=O)N1C(=O)C(=C(C)O)C(=O)C1CC(C)C (stereo not drawn) [23a]	MIC S2	µg/mL	8

* * *

Test system: H3
experiment: MIC determination (bacteria), strain H3
Format: cell-based, H. influenzae
assayContext: Haemophilus influenzae; Table 2; haemophilus test medium
Procedure: MIC determination (bacteria); MICs were determined based on Clinical and Laboratory Standards Institute (CLSI) methodology (Methods for dilution antimicrobial susceptibility tests for bacteria that grow aerobically; Approved Standard—seventh edition. 2006, M7-A7, CLSI, Wayne Pa.) by a 2-fold broth dilution technique in Mueller Hinton (pH7.4 Biorad). For S. pneumoniae, the medium was supplemented with 2.5% laked horse blood. For H. influenzae, the medium was haemophilus test medium (H.T.M.). […]

molecule	testedSystem	valueOperator	MIC, µg/mL
CSCCC1C(=O)/C(=C(/O)CC(C)(C)CC(=O)OCCC23CC4CC(CC(C4)C2)C3)C(=O)N1C(C)=O (centres unmarked) [31i]	H3	>	64
Cc1cc(Cl)ccc1OCCC/C(O)=C1\C(=O)CCN(C(=O)c2ccccc2)C1=O [19d]	H3	=	16
CSCCC1C(=O)/C(=C(/O)CCCOc2ccc(Cl)cc2C)C(=O)N1C(=O)CC(C)CC(C)(C)C (centres unmarked) [31j]	H3	>	64
CSCCC1C(=O)/C(=C(/O)CC2CC3CCC2C3)C(=O)N1C(=O)CC(C)CC(C)(C)C (centres unmarked) [31g]	H3	=	32
CCCCCCC(=O)N1CC(=O)/C(=C(/O)CO[C@H]2C[C@@H](C)CC[C@@H]2C(C)C)C1=O [27n]	H3	>	64

* * *

Tested on: human peripheral blood cells
experiment: in vitro toxicities human peripheral blood cells
Format: cell-based
assayContext: human peripheral blood cells

molecule	valueOperator	PMBC (LD50, μM) / µM
CC(C)CC1C(=O)C(=C(O)CCCCCc2ccccc2)C(=O)N1C(=O)c1ccccc1 (stereo not drawn) [30a]	=	90.9
CCCCCCCC=CC(=O)N1C(=O)C(=C(C)O)C(=O)C1CC(C)C (stereo not drawn) [23a]	=	90.9
CCCCCCCCCC(O)=C1C(=O)C(CCSC)N(C(=O)Cc2cccs2)C1=O (stereo not drawn) [24m]	=	90.9
CCCC(=O)N1CC(=O)C(=C(O)CC23CC4CC(C)(CC(C)(C4)C2)C3)C1=O [27k]	=	90.9
CCCCCCCC=CC(=O)N1C(=O)C(=C(O)CCCCC)C(=O)C1CC(C)C (stereo not drawn) [23c]	=	30.3
CCCCCCCCCCCCC/C(O)=C1\C(=O)[C@@H]2CCCC(=O)N2C1=O [22b]	>	90.9
CCCCCCCCCC(O)=C1C(=O)CCN(C(=O)c2ccccc2)C1=O [25a]	>	90.9
CSCCC1C(=O)C(=C(O)CC23CC4CC(C)(CC(C)(C4)C2)C3)C(=O)N1C(C)=O (stereo not drawn) [31e]	=	90.9
CCCCCCC(=O)N1CC(=O)C(=C(O)CC23CC4CC(CC(C4)C2)C3)C1=O [27i]	=	30.3

* * *

Measured MIC H3, listed per entry.
Test system: H3
experiment: MIC determination (bacteria), strain H3
Assay type: cell-based, H. influenzae
assayContext: Table 1; haemophilus test medium
measurementName: MIC H3 (µg/mL)

compound	testedSystem	unitOfMeasurement	valueOperator	readoutNumber
CCCCCCCCCCC(O)=C1C(=O)C(CCSC)N(C(C)=O)C1=O (stereo not drawn) [24a]	H3	µg/mL	=	8
CCCCCC(O)=C1C(=O)C(CCSC)N(C(=O)CC(C)CC(C)(C)C)C1=O (stereo not drawn) [24i]	H3	µg/mL	=	8
CCCCCCCCCC(O)=C1C(=O)CCN(C(=O)c2ccc(OC)cc2)C1=O [25d]	H3	µg/mL	=	64
CCCCCCCC=CC(=O)N1C(=O)C(=C(O)CCCCC)C(=O)C1CC(C)C (stereo not drawn) [23c]	H3	µg/mL	>	64
CCCCCCCCCC(O)=C1C(=O)C(CCSC)N(C(=O)CC(C)CC(C)(C)C)C1=O (stereo not drawn) [24k]	H3	µg/mL	>	64
CCCCCC(O)=C1C(=O)C(CCSC)N(C(=O)C2CCCCC2)C1=O (stereo not drawn) [24d]	H3	µg/mL	=	32
CCCCCCCCCCCCCC(O)=C1C(=O)CCN(C(=O)c2ccccc2)C1=O [25c]	H3	µg/mL	>	64
CCCCCCCCCC(O)=C1C(=O)CCN(C(=O)c2ccccc2)C1=O [25a]	H3	µg/mL	=	16
CCCCCCCCCCCC(O)=C1C(=O)CCN(C(=O)c2ccccc2)C1=O [25b]	H3	µg/mL	=	8
CCCCCCCC=CC(=O)N1C(=O)C(=C(C)O)C(=O)C1CC(C)C (stereo not drawn) [23a]	H3	µg/mL	=	64
CCCCCCCCCCCC(O)=C1C(=O)C(CCSC)N(C(C)=O)C1=O (stereo not drawn) [24b]	H3	µg/mL	=	2
CCCCCCCC(O)=C1C(=O)C(CCSC)N(C(=O)C2CCCCC2)C1=O (stereo not drawn) [24e]	H3	µg/mL	=	16
CCCCCCCC=CC(=O)N1C(=O)C(=C(O)CCC)C(=O)C1CC(C)C (stereo not drawn) [23b]	H3	µg/mL	>	64
CCCCCCCCCC(O)=C1C(=O)C(CCSC)N(C(=O)Cc2cccs2)C1=O (stereo not drawn) [24m]	H3	µg/mL	=	16
CCCCCCCC(O)=C1C(=O)C(CCSC)N(C(=O)CC(C)CC(C)(C)C)C1=O (stereo not drawn) [24j]	H3	µg/mL	>	64

* * *

System: S1
experiment: MIC determination (bacteria), strain S1
Format: cell-based, S. aureus
assayContext: Staphylococcus aureus; Table 2; 2-fold broth dilution
measurementName: MIC (µg/mL)

compound	measurementName	valueOperator	readoutNumber
CSCCC1C(=O)/C(=C(/O)CCCOc2ccc(Cl)cc2C)C(=O)N1C(=O)CC(C)CC(C)(C)C (centres unmarked) [31j]	MIC	=	0.5
CSCCC1C(=O)/C(=C(/O)CC(C)(C)CC(=O)OCCC23CC4CC(CC(C4)C2)C3)C(=O)N1C(C)=O (centres unmarked) [31i]	MIC	=	8
CSCCC1C(=O)/C(=C(/O)CC2CC3CCC2C3)C(=O)N1C(=O)CC(C)CC(C)(C)C (centres unmarked) [31g]	MIC	=	0.12
CCCCCCC(=O)N1CC(=O)/C(=C(/O)CO[C@H]2C[C@@H](C)CC[C@@H]2C(C)C)C1=O [27n]	MIC	>	64
Cc1cc(Cl)ccc1OCCC/C(O)=C1\C(=O)CCN(C(=O)c2ccccc2)C1=O [19d]	MIC	=	2
